Reference for the values: PubChem BioAssay (NCI)

Test system: MDA-MB-231 breast
Assay: NCI-60 one-dose screen, 48 h (100 = growth as untreated, 0 = no growth, -100 = all killed)
Conditions: 10 µM
The panel holds about 83,000 compounds, 20% with a hit somewhere; the sample as a whole holds those more often.
Quick rule: growth of at least 30% means satisfied, below that means not satisfied.

COc1ccc(-c2c(N)c(=O)n(C)c3ccccc23)cc1 = satisfied

INPUT: I'd appreciate it if you could say whether O=C(Nc1cccc(-c2cn(-c3ccc4oc(=O)ccc4c3)nn2)c1)Nc1cc(C(F)(F)F)cc(C(F)(F)F)c1 has growth at least equal to 30%.
OUTPUT: satisfied

INPUT: I'd appreciate it if you could say whether N#Cc1ccc(NC(=O)CSc2ccc(-c3ccc(Br)cc3)nn2)cc1 has growth at least equal to 30%.
OUTPUT: satisfied

INPUT: I'd appreciate it if you could say whether Cc1cccc(-c2nc(Nc3ccccc3C(=O)O)c3ccccc3n2)c1 has growth at least equal to 30%.
OUTPUT: satisfied

INPUT: I'd appreciate it if you could say whether CC(C)(C)Nc1nc2cc(Cl)c(Cl)cc2nc1S(C)(=O)=O has growth at least equal to 30%.
OUTPUT: not satisfied

INPUT: I'd appreciate it if you could say whether CCCCSc1nc(Nc2ccc(/C(C)=N/NC(N)=S)cc2)c(C#N)c(-c2ccc(F)cc2)n1 has growth at least equal to 30%.
OUTPUT: not satisfied

INPUT: I'd appreciate it if you could say whether CCCS(=O)(=O)c1oc(-c2ccc(F)cc2)nc1S(=O)(=O)c1ccc(F)cc1 has growth at least equal to 30%.
OUTPUT: not satisfied

INPUT: I'd appreciate it if you could say whether COc1ccc(/C(CSc2nnc(-c3c[nH]c4ccccc34)n2-c2ccccc2)=N/O)cc1 has growth at least equal to 30%.
OUTPUT: satisfied

INPUT: I'd appreciate it if you could say whether CN(C)c1nc(NCCNS(=O)(=O)c2ccc(C(=O)/C=C/c3ccccc3)cc2)nc(Nc2ccc(F)cc2)n1 has growth at least equal to 30%.
OUTPUT: not satisfied

INPUT: I'd appreciate it if you could say whether O=C(CS(=O)(=O)c1oc(-c2ccc(Cl)cc2)nc1S(=O)(=O)c1ccc(Cl)cc1)N1CCOCC1 has growth at least equal to 30%.
OUTPUT: not satisfied

INPUT: I'd appreciate it if you could say whether C/C(=N\N=C\c1ccc(N(C)C)cc1)c1ccc2c(c1)Nc1ccccc1S2 has growth at least equal to 30%.
OUTPUT: satisfied

INPUT: I'd appreciate it if you could say whether Cc1ccc(NC(=O)NCn2c(=O)[nH]c3ccccc3c2=O)cc1 has growth at least equal to 30%.
OUTPUT: satisfied

INPUT: I'd appreciate it if you could say whether C=C(C)[C@@H]1CC[C@]2(C)[C@H](CC=C3[C@@H]4CC(C)(C)CC[C@]4(C(=O)N4CCOCC4)CC[C@]32C)[C@@]1(C)CCCN has growth at least equal to 30%.
OUTPUT: not satisfied

INPUT: I'd appreciate it if you could say whether C=C1CCC2C3(C)COC(c4c(F)cccc4F)OC3CCC2(C)C1CC(O)C1=CCOC1=O (stereo not drawn) has growth at least equal to 30%.
OUTPUT: satisfied

INPUT: I'd appreciate it if you could say whether CC(=O)c1ccc(Nc2nc(SC(C)C)nc(-c3ccccc3)c2C#N)cc1 has growth at least equal to 30%.
OUTPUT: not satisfied

INPUT: I'd appreciate it if you could say whether O=C(NO)c1ccc(Cn2ccc3c(NCc4ccccc4)ncnc32)cc1 has growth at least equal to 30%.
OUTPUT: not satisfied
